- system.under.test: Adenosine receptor A2b (Homo sapiens)
- assay.text: Antagonist activity at human A2B receptor expressed in CHO cells assessed as inhibition of NECA-stimulated cAMP production at 1 uM by [3H]cAMP competition binding based scintillation counting method relative to control
- Format: functional, cell-based
measurement.name: inhibition (%)

a = Nc1nc(-c2cccc(NC(=O)Cc3ccccc3)c2)cn2cc(-c3ccccc3)nc12
b = COc1ccc(-c2cn3cc(-c4ccccc4)nc(NC(=O)c4ccccc4)c3n2)cc1
c = Nc1nc(-c2ccccc2)cn2cc(-c3ccccc3)nc12
d = O=C(Nc1nc(-c2ccccc2)cn2cc(-c3ccccc3)nc12)c1ccco1
Put the entries in order of inhibition, starting with the largest number. Form entry: ranked labels (order as requested).
c, a, d, b
